Here, each record is paired with measured MIC data.
# Tested on: Enterococcus faecium
# method summary: Antimicrobial activity against vancomycin-resistant Enterococcus faecium CL5791 after 20 hrs
# Assay type: functional
parameter measured: MIC

> print(dat)
                                   molecule  test.result
1  CCCC#CC#CC=C=CCCCCCCCC(=O)O [PHOMALLENIC ACID C]  > 100 µg/mL
2  CCCC#CC#CC=C=CCCCCCCC(=O)O [PHOMALLENIC ACID B]  > 100 µg/mL
3  CCC(O)C#CC#CC=C=CCCCCC(=O)O (centres undefined) [PHOMALLENIC ACID A]  > 250 µg/mL
4  C=C/C(C)=C/[C@@]1(C)SC(=O)C(C)=C1O [THIOLACTOMYCIN]  > 250 µg/mL
